Attribution: PubChem BioAssay (EPA / NIEHS)

- EXPERIMENT: ATG_ERE_CIS: Attagene CIS-FACTORIAL HepG2 Assay for Estrogen Response Element (ERE) (AID 2282940)
- CONDITION PARAMETERS: HepG2 ERE cis-reporter, Attagene RNA transcript; actives raise or lower the signal
Active and inactive are the calls of the source. Rule for the calls: active = hit-call score of the fitted dose curve at least 0.9, where 1 is the maximum; inactive = score below 0.9.
Output constraint: value belongs to active, inactive

[[record]]
molecule = "O=C(CCl)Nc1ccccc1"
category = "inactive"

[[record]]
molecule = "Nc1ccc(Br)cc1"
category = "inactive"

[[record]]
molecule = "Cc1ccccc1OP(=O)(Oc1ccccc1C)Oc1ccccc1C"
category = "active"


Enquiry: Lab log entry: "c1ccc(-c2cccc(-c3ccccc3)c2)cc1" — outcome as called in the assay?
Return: active

Enquiry: Hi, sorry to bother you, what did the test record for "CCCCN(CCCC)C(=S)[S-].CCCCN(CCCC)C(=S)[S-].[Ni+2]" ?
Return: inactive

====

- TGT: Cellular tumor antigen p53 (Homo sapiens)
- EXPERIMENT: ATG_p53_CIS: Attagene CIS-FACTORIAL HepG2 Assay for human p53 Transcription Factor (AID 2282994)
- CONDITION PARAMETERS: HepG2 p53 cis-element reporter, Attagene mRNA; actives raise or lower the signal
Calls of active or inactive are those of the source. The calls were made as follows: active = hit-call score of the fitted dose curve at least 0.9, where 1 is the maximum; inactive = score below 0.9.
Hi! Could you answer with just one of these? active, inactive

[[record]]
molecule = "CCCCCCCCCCCCCCC(Br)C(=O)O (stereo not drawn)"
category = "inactive"

[[record]]
molecule = "c1ccc2c(c1)Oc1ccccc1O2"
category = "inactive"


Kindly review the next molecule as well.
Enquiry: Recorded test call requested for "O=[N+]([O-])c1ccc(Cl)c([N+](=O)[O-])c1"
Return: inactive

====

- Read-out: Monokine induced gamma interferon (MIG), CXCL9 (gene 4283)
- EXPERIMENT: BSK_hDFCGF_MIG: BioMAP Diversity Plus: hDFCGF Assay for Monokine induced gamma interferon (MIG) Biomarker Activity (AID 2283063)
- CONDITION PARAMETERS: primary human foreskin fibroblasts; actives raise or lower the signal
Activity calls are given as the source filed them. The calls were made as follows: active = hit-call score of the fitted dose curve at least 0.9, where 1 is the maximum; inactive = score below 0.9.
EXPERIMENTAL ENDPOINT: outcome

[[record]]
input_smiles = "Oc1cc(Cl)c(Cl)cc1Cl"
measured_result = "inactive"

[[record]]
input_smiles = "Cc1ccc(OP(=O)(Oc2ccc(C)cc2C)Oc2ccc(C)cc2C)c(C)c1"
measured_result = "inactive"

[[record]]
input_smiles = "Cc1cc(C)cc(C)c1"
measured_result = "inactive"


====

- EXPERIMENT: ATG_SREBP_CIS: Attagene CIS-FACTORIAL HepG2 Assay for human Sterol Regulatory Element Binding (SREBP) (AID 2282962)
- CONDITION PARAMETERS: HepG2 Attagene cis-factorial SREBP reporter, mRNA; actives raise or lower the signal
- Procedure: ATG_CIS is a cell-based, multiplexed-readout assay that uses HepG2, a human liver cell line, with measurements taken at 24 hours after chemical dosing in a 24-well plate.ATG_SREBP_CIS is one of 52 assay component(s) measured or calculated from the ATG_CIS assay. […] This assay endpoint, ATG_SREBP_CIS, was analyzed with bidirectional fitting relative to DMSO as the negative control and baseline of activity. […]
Calls of active or inactive are those of the source. The calls were made as follows: active = hit-call score of the fitted dose curve at least 0.9, where 1 is the maximum; inactive = score below 0.9.
Bench note: report the call from label 1 = active, label 0 = inactive

[[record]]
molecule = "C#CCO"
category = "label 0"

[[record]]
molecule = "O=C(NC(=O)c1c(F)cccc1F)Nc1ccc(Cl)cc1"
category = "label 0"

[[record]]
molecule = "Brc1c(Br)c(Br)c(Oc2c(Br)c(Br)c(Br)c(Br)c2Br)c(Br)c1Br"
category = "label 0"


Enquiry: // outcome(item) with item = "O=[N+]([O-])c1cccc2ccccc12"
Return: label 0

Enquiry: Hi, sorry to bother you, what did the test record for "Nc1ccc(Br)cc1" ?
Return: label 0

Enquiry: What classification did "Cc1cc(-c2cc(C)c(N)c(C)c2)cc(C)c1N" end up with in this test?
Return: label 0

Enquiry: Record lookup: outcome of this test for "N#Cc1ccccc1N" ?
Return: label 0

Enquiry: Status in this test for "O=C/C(Cl)=C(/Cl)C(=O)O" ?
Return: label 1

Enquiry: Please share the test call associated with "CC(C)(C)c1cc([N+](=O)[O-])cc(C(C)(C)C)c1O" .
Return: label 0

Enquiry: Returns: the outcome recorded for "C=CC(=O)OCC(COC(=O)C=C)(COC(=O)C=C)COC(=O)C=C" in this assay.
Return: label 0

====

- EXPERIMENT: BSK_SAg_SRB: Viability Assessment in the BioMAP Diversity Plus: SAg Assay (AID 2283096);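 note: cells read one day after compound addition; hits may be either gain or loss of signal compared with DMSO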
- CONDITION PARAMETERS: primary human HUVEC with PBMC
Activity calls are given as the source filed them. Rule for the calls: active = hit-call score of the fitted dose curve at least 0.9, where 1 is the maximum; inactive = score below 0.9.
Response enum: active, inactive

For orientation, consider the following solved cases.
[[record]]
molecule = "Cc1cc(C)cc(C)c1"
category = "inactive"

[[record]]
molecule = "C=CC(Cl)CCl (stereo unspecified)"
category = "inactive"

[[record]]
molecule = "Cc1cc(C(C)(C)c2ccc(O)c(C)c2)ccc1O"
category = "inactive"

[[record]]
molecule = "Oc1c(Cl)cc(Cl)cc1Cl"
category = "inactive"

[[record]]
molecule = "O=S(=O)(c1ccc(Cl)cc1)c1cc(Cl)c(Cl)cc1Cl"
category = "inactive"

[[record]]
molecule = "CCCCCCCCCCCCN(C)C"
category = "inactive"

[[record]]
molecule = "Oc1cc(Cl)c(Cl)cc1Cl"
category = "active"

[[record]]
molecule = "[Cl][Sn]([c]1ccccc1)([c]1ccccc1)[c]1ccccc1"
category = "active"

[[record]]
molecule = "O=C(N[C@H]1CN2CCC1CC2)c1ccc2c(c1)OCCO2"
category = "inactive"

[[record]]
molecule = "CC(C)(C)c1cc([N+](=O)[O-])cc(C(C)(C)C)c1O"
category = "active"


Enquiry: How was "O=C(O)COc1cc(Cl)c(Cl)cc1Cl" classified in this test?
Return: inactive

Enquiry: What outcome does the record of this test show for "O=C(O)C1(c2ccc3c(c2)OC[C@H](Cc2ccc(-c4ccccc4)cc2)[C@H]3O)CCCC1" ?
Return: active

Enquiry: Hi, do you know how "C[C@]12CC[C@@H](O)C[C@@H]1CC[C@@H]1[C@@H]2CC[C@]2(C)C(=O)CC[C@@H]12" came out in this test?
Return: inactive

Enquiry: What call does the record list for "Cc1cc(Cl)ccc1N" ?
Return: inactive

Enquiry: Record request — test call for "O=C(Cc1ccccc1)OCCc1ccccc1"
Return: inactive

Enquiry: What classification did "Nc1ccc(N)cc1" end up with in this test?
Return: inactive

====

- TGT: Bile acid receptor (Homo sapiens) (UniProt Q96RI1)
- Sequence (Q96RI1 whole entry, looked up): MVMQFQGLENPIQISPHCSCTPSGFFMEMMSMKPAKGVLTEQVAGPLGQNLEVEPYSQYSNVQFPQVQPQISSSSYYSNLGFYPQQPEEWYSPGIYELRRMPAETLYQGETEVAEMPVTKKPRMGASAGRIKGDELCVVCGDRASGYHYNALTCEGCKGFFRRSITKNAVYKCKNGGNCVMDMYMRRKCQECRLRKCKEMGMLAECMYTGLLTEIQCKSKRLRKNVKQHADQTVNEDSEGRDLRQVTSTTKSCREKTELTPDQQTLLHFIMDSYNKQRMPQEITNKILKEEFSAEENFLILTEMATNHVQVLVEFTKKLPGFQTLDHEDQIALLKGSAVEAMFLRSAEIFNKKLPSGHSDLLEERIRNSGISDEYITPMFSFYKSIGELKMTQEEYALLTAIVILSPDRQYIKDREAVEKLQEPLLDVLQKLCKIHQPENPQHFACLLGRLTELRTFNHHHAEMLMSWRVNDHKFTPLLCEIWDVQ
- EXPERIMENT: ATG_IR1_CIS: Attagene CIS-FACTORIAL HepG2 Assay for human Nuclear Receptor Subfamily 1 Group H Member 4 (NR1H4), IR1 submotif (AID 2282946)
- CONDITION PARAMETERS: IR1 reporter transcription, actives raise or lower the signal
Activity calls are given as the source filed them. How the source made its calls: active means hit-call score of the fitted dose curve at least 0.9, where 1 is the maximum; inactive means score below 0.9.
Would you mind answering with one of these outcomes? active, inactive

These solved cases illustrate the format of a correct answer.
[[record]]
molecule = "FC(F)OCC(F)(F)C(F)(F)F"
tgt = "Bile acid receptor (Homo sapiens) (UniProt Q96RI1)"
category = "inactive"

[[record]]
molecule = "C=C(C)[C@@H]1CC=C(C=O)CC1"
tgt = "Bile acid receptor (Homo sapiens) (UniProt Q96RI1)"
category = "inactive"


Kindly consider the entry below.
Enquiry: Any idea what this test logged for "CC(c1ccccc1)(c1ccc(O)cc1)c1ccc(O)cc1" ?
Return: active

====

- Read-out: Thrombomodulin, THBD (gene 7056)
- EXPERIMENT: BSK_3C_Thrombomodulin: BioMAP Diversity Plus: 3C Assay for Thrombomodulin Biomarker Activity (AID 2283029)
- CONDITION PARAMETERS: primary human endothelial cells (HUVEC); actives raise or lower the signal
Activity calls are given as the source filed them. How the source made its calls: active means hit-call score of the fitted dose curve at least 0.9, where 1 is the maximum; inactive means score below 0.9.
EXPERIMENTAL ENDPOINT: outcome

The examples below pair each entry with its known result.
[[record]]
compound = "O=c1oc2ccccc2c(O)c1C(CC(O)c1ccc(-c2ccc(Br)cc2)cc1)c1ccccc1 (stereo not given)"
measured_result = "inactive"

[[record]]
compound = "CC1(C)[C@H](C(=O)O[C@H](C#N)c2cccc(Oc3ccccc3)c2)[C@@H]1/C=C(\\Cl)C(F)(F)F"
measured_result = "inactive"

[[record]]
compound = "O=C(O)C1(c2ccc3c(c2)OC[C@H](Cc2ccc(-c4ccccc4)cc2)[C@H]3O)CCCC1"
measured_result = "inactive"

[[record]]
compound = "O=C(CCl)NCO"
measured_result = "inactive"


Continue with the next compound.
Enquiry: Look up and report measured outcome for this entry: "COc1ccccc1N"
Return: inactive

====

- EXPERIMENT: ATG_E_Box_CIS: Attagene CIS-FACTORIAL HepG2 Assay for human Enhancer Box (E-box) (AID 2282936)
- CONDITION PARAMETERS: HepG2 E-box cis-reporter transcription, actives raise or lower the signal
The source made the active and inactive calls. Rule for the calls: active = hit-call score of the fitted dose curve at least 0.9, where 1 is the maximum; inactive = score below 0.9.
Respond only with the outcome that fits, drawn from t = active, f = inactive

Here are 3 molecules together with their reported answers.
[[record]]
input_smiles = "BrCc1ccc(Br)cc1"
category = "f"

[[record]]
input_smiles = "OC[C@@H](O)[C@H]1O[C@@H]2O[C@H](C(Cl)(Cl)Cl)O[C@@H]2[C@H]1O"
category = "f"

[[record]]
input_smiles = "CC(C)CP(=S)(S)CC(C)C"
category = "f"


Enquiry: Just curious, what result did "COCCl" get here?
Return: f

Enquiry: Look up the recorded call for "Brc1ccc(Br)cc1" in this test.
Return: f

Enquiry: What call does the record list for "Cc1cc(C(F)(C(F)(F)F)C(F)(F)F)ccc1NC(=O)c1cccc(I)c1C(=O)NC(C)(C)CS(C)(=O)=O" ?
Return: f

Enquiry: What classification did "O=NN1CCOCC1" end up with in this test?
Return: f

Enquiry: # fetch the recorded call for "O=C(NC(=O)c1c(F)cccc1F)Nc1cc(Cl)c(F)c(Cl)c1F" here
Return: f

Enquiry: What did this assay record as the result for "CCCCCCCCCCCCOS(=O)(=O)O" ?
Return: f

Enquiry: Dear colleague, could you share the recorded outcome for "C=CCOC(N)=O" when you have a moment?
Return: f

Enquiry: Would you mind telling me which call this test gave "CCC[CH2][Sn]([CH2]CCC)([CH2]CCC)[CH2]CCC" ?
Return: t
